Test: osmotic lysis modulators in infected erythrocytes, primary screen, PSAC antagonist project, cell-based, P. falciparum Indochina, OD700, 3 h (AID 1156)
Details: higher = more signal, called active from +8 up or from −8 down
Assignment: determine reported z-score for the given compounds.
One number for each entry.

These solved cases illustrate the format of a correct answer.
>>> endpoint_value("O=C(NN=C1C[C@@H](O)[C@@H](O)[C@@H]2[C@@H]3C(=O)N(c4ccc(F)cc4F)C(=O)[C@@H]3CC[C@@H]12)OCc1ccccc1")
-0.479
>>> endpoint_value("CN(C)CCCNC(=O)[C@@H]1c2ccccc2C(=O)N(Cc2cc(F)cc(C(F)(F)F)c2)[C@H]1c1ccc(CO)cc1")
2.38

Next up:
Exercise: // query z-score value for entry COCCOC(=O)N1C(=O)[C@@]2(c3cc(C#Cc4ccc(OC)cc4)ccc31)[C@H](C(=O)N1CCN(c3ncccn3)CC1)[C@H]1C(=O)O[C@H](c3ccccc3)[C@H](c3ccccc3)N1[C@@H]2c1ccc(OCCO)cc1
Key: 0.493
